All values here come from ChEMBL document CHEMBL1124378.

assayed-system: D(2) dopamine receptor (Bos taurus) (UniProt P20288)
test-details: Inhibition of [3H]spiperone binding to Dopamine receptor D2 from calf caudate
quantity-measured: pIC50
# reply with the number alone; pIC50 is -log10 of concentration in mol/L

compound-smiles: CN1CCN(C2=Nc3c(Cl)cccc3Nc3nn(C)cc32)CC1
assayed-system: D(2) dopamine receptor (Bos taurus) (UniProt P20288)
pIC50: 6.07
--
compound-smiles: CN1CCN(C2=Nc3cccc(Cl)c3Nc3nn(C)cc32)CC1
assayed-system: D(2) dopamine receptor (Bos taurus) (UniProt P20288)
pIC50: 5.33
--
compound-smiles: Cn1cc2c(n1)Nc1ccc(F)cc1N=C2N1CCN(Cc2ccccc2)CC1
assayed-system: D(2) dopamine receptor (Bos taurus) (UniProt P20288)
pIC50: 5.57
--
compound-smiles: Cn1cc2c(n1)Nc1ccc(F)cc1N=C2N1CCN(CC2CC2)CC1
assayed-system: D(2) dopamine receptor (Bos taurus) (UniProt P20288)
pIC50: 6.05
--
compound-smiles: CC(C)n1cc2c(n1)Nc1ccc(F)cc1N=C2N1CCN(C)CC1
assayed-system: D(2) dopamine receptor (Bos taurus) (UniProt P20288)
pIC50: 5.96

Measured pIC50, CN1CCN(C2=Nc3cc(Br)ccc3Nc3nn(C)cc32)CC1 : 6.17

Measured pIC50, CN1CCN(C2=Nc3cc(F)ccc3Nc3nn(-c4ccccc4)cc32)CC1 : 5.59

====

Measured IC50 values are reported for all entries that follow.
assayed-system: Muscarinic acetylcholine receptor
test-details: Inhibition of [3H]QNB binding to muscarinic cholinergic receptor from male Olac rat brain.

Solved entries:
compound-smiles: CN1CCN(C2=Nc3cc(F)ccc3Nc3nn(C)cc32)CC1
IC50: 150 µM
--
compound-smiles: CC(C)Cn1cc2c(n1)Nc1ccc(Cl)cc1N=C2N1CCN(C)CC1
IC50: > 10 µM
--
compound-smiles: CCCCCCn1cc2c(n1)Nc1ccc(F)cc1N=C2N1CCN(C)CC1.Cl
IC50: 18 µM
--
compound-smiles: CN1CCN(C2=Nc3ccc(F)cc3Nc3nn(C)cc32)CC1
IC50: 43 µM

Measured IC50, CN1CCN(C2=Nc3cc(Cl)ccc3Nc3nn(C)cc32)CC1 : 8.9 µM

Measured IC50, CN1CCN(C2=Nc3cc(F)ccc3Nc3nn(Cc4ccccc4)cc32)CC1 : > 100 µM

Measured IC50, CCn1cc2c(n1)Nc1ccc(F)cc1N=C2N1CCN(C)CC1 : 14 µM

Measured IC50, CN1CCN(C2=Nc3cc(F)ccc3Nc3nn(C)c(-c4ccccc4)c32)CC1 : > 100 µM

====

assayed-system: D(2) dopamine receptor (Bos taurus) (UniProt P20288)
test-details: Inhibition of [3H]spiperone binding to dopamine receptor D2 from calf caudate
Measured IC50 values are reported for all entries that follow.
// note: answer is a bare numeric in nM

Solved entries:
compound-smiles: CN1CCN(C2=Nc3cc(F)ccc3Nc3nn(Cc4ccccc4)cc32)CC1
readout-units: nM
observed-measurement: 400
//
compound-smiles: CCn1cc2c(n1)Nc1ccc(Cl)cc1N=C2N1CCN(C)CC1
readout-units: nM
observed-measurement: 340
//
compound-smiles: CN1CCN(C2=Nc3cc(Cl)ccc3Nc3nn(C4CCCC4)cc32)CC1
readout-units: nM
observed-measurement: 140
//
compound-smiles: CC(C)Cn1cc2c(n1)Nc1ccc(Cl)cc1N=C2N1CCN(C)CC1
readout-units: nM
observed-measurement: 3300
//
compound-smiles: Cc1c2c(nn1C)Nc1ccc(F)cc1N=C2N1CCN(C)CC1
readout-units: nM
observed-measurement: 97000
//
compound-smiles: CCCCCCn1cc2c(n1)Nc1ccc(F)cc1N=C2N1CCN(C)CC1.Cl
readout-units: nM
observed-measurement: 700

Measured IC50, CN1CCN(C2=Nc3cc(Cl)ccc3Nc3nn(C)cc32)CC1 : 680

Measured IC50, CCn1cc2c(n1)Nc1ccc(F)cc1N=C2N1CCN(C)CC1 : 3300

Measured IC50, CN1CCN(C2=Nc3cc(F)ccc3Nc3nn(C)cc32)CC1 : 2600

Measured IC50, CN1CCN(C2=Nc3cc(F)c(F)cc3Nc3nn(C)cc32)CC1 : 760

Measured IC50, CN1CCN(C2=Nc3ccc(F)cc3Nc3nn(C)cc32)CC1 : 2600

Measured IC50, CN1CCN(C2=Nc3cc(F)ccc3Nc3nn(C)c(-c4ccccc4)c32)CC1 : 2100

====

Measured IC50 values are reported for all entries that follow.
assayed-system: Muscarinic acetylcholine receptor
test-details: Compound was evaluated for the inhibition of [3H]QNB binding to Muscarinic acetylcholine receptor from male Olac rat brain.

compound-smiles: CCCCCCCCCCn1cc2c(n1)Nc1ccc(Cl)cc1N=C2N1CCN(C)CC1
IC50: > 10 µM

Measured IC50, CN1CCN(C2=Nc3cc(Cl)c(Cl)cc3Nc3nn(C)cc32)CC1 : > 1 µM

Measured IC50, CC(C)n1cc2c(n1)Nc1ccc(F)cc1N=C2N1CCN(C)CC1 : 7.2 µM

Measured IC50, CN1CCN(C2=Nc3ccccc3Nc3c2cnn3C)CC1 : > 100 µM

Measured IC50, CCOC(=O)N1CCN(C2=Nc3cc(F)ccc3Nc3nn(C)cc32)CC1 : > 100 µM

Measured IC50, Cn1cc2c(n1)Nc1ccc(Cl)cc1N=C2N : > 100 µM

====

assayed-system: D(2) dopamine receptor (Bos taurus) (UniProt P20288)
test-details: Inhibition of [3H]spiperone binding to Dopamine receptor D2 from calf caudate
quantity-measured: IC50

Solved entries:
compound-smiles: CN1CCN(C2=Nc3cc(C(=O)c4ccccc4)ccc3Nc3nn(C)cc32)CC1
assayed-system: D(2) dopamine receptor (Bos taurus) (UniProt P20288)
quantity-measured: IC50
observed-measurement: > 10 µM

compound-smiles: CN1CCN(C2=Nc3cc(I)ccc3Nc3nn(C)cc32)CC1
assayed-system: D(2) dopamine receptor (Bos taurus) (UniProt P20288)
quantity-measured: IC50
observed-measurement: > 1 µM

Measured IC50, CN1CCN(C2=Nc3cc(S(C)(=O)=O)ccc3Nc3nn(C)cc32)CC1 : > 10 µM

====

assayed-system: D(2) dopamine receptor (Bos taurus) (UniProt P20288)
test-details: Inhibition of [3H]spiperone binding to Dopamine receptor D2 from calf caudate
quantity-measured: IC50

compound-smiles: CN1CCN(C2=Nc3cc(Cl)c(Cl)cc3Nc3nn(C)cc32)CC1
quantity-measured: IC50
observed-measurement: > 10 µM

// IC50 (D(2) dopamine receptor (Bos taurus) (UniProt P20288)) for Cc1nn(C)c2c1Nc1ccc(F)cc1N=C2N1CCN(C)CC1 = > 10 µM

// IC50 (D(2) dopamine receptor (Bos taurus) (UniProt P20288)) for Cn1cc2c(n1)Nc1ccc(F)cc1N=C2N1CCOCC1 = > 100 µM

// IC50 (D(2) dopamine receptor (Bos taurus) (UniProt P20288)) for CCOC(=O)N1CCN(C2=Nc3cc(F)ccc3Nc3nn(C)cc32)CC1 = > 10 µM

====

assayed-system: Muscarinic acetylcholine receptor
test-details: Inhibition of [3H]QNB binding to muscarinic cholinergic receptor from male Olac rat brain.
Measured IC50 values are reported for all entries that follow.

compound-smiles: CN1CCN(C2=Nc3cc(F)ccc3Nc3nn(-c4ccccc4)cc32)CC1
IC50: > 10 µM
--
compound-smiles: CCn1cc2c(n1)Nc1ccc(Cl)cc1N=C2N1CCN(C)CC1
IC50: > 1 µM

// IC50 (Muscarinic acetylcholine receptor) for Cn1cc2c(n1)Nc1ccc(F)cc1N=C2N1CC[N+](C)([O-])CC1 = > 1 µM

// IC50 (Muscarinic acetylcholine receptor) for CN1CCN(C2=Nc3cc(Cl)ccc3Nc3nn(C4CCCC4)cc32)CC1 = > 10 µM

// IC50 (Muscarinic acetylcholine receptor) for Cc1c2c(nn1C)Nc1ccc(F)cc1N=C2N1CCN(C)CC1 = 3.2 µM

// IC50 (Muscarinic acetylcholine receptor) for CN1CCN(C2=Nc3cc(F)c(F)cc3Nc3nn(C)cc32)CC1 = 21 µM

====

assayed-system: Muscarinic acetylcholine receptor
test-details: Compound was evaluated for the inhibition of [3H]QNB binding to Muscarinic acetylcholine receptor from male Olac rat brain.
Measured IC50 values are reported for all entries that follow.

compound-smiles: CN(C)CCNC1=Nc2cc(F)ccc2Nc2nn(C)cc21
IC50: 6.1 µM
//
compound-smiles: Cn1cc2c(n1)Nc1ccc(F)cc1N=C2N1CCN(CC2CC2)CC1
IC50: > 10 µM
//
compound-smiles: CN1CCN(C2=Nc3cccc(Cl)c3Nc3nn(C)cc32)CC1
IC50: > 100 µM

Measured IC50, CN1CCN(C2=Nc3cc(Br)ccc3Nc3nn(C)cc32)CC1 : > 10 µM

Measured IC50, CN1CCN(C2=Nc3cc(C(=O)c4ccccc4)ccc3Nc3nn(C)cc32)CC1 : > 1 µM
